B1: Max-interacting protein 1, residues 70 to 120; numbered along this chain, P50539 (parent)
chain: STHNELEKNRRAHLRLCLERLKVLIPLGPDCTRHTTLGLLNKAKAHIKKLE

variants of: B1; assay: abundance fitness (aPCA) (normalised: wild type 0, dead -1); higher = more abundant; growth selection in yeast, the domain comes from the species named; conditions: Homo sapiens
measurement_label: abundance fitness
Answers are plain numbers.

Hi! Can you tell me abundance fitness for each of these variants?
1. STHNELEKNRAAHLRLCLERLKVLIPLGPDCTRHTTLGLLNKAKAHIKKLE [R11A]
2. STHNELEKNRRAHLRLLLERLKVLIPLGPDCTRHTTLGLLNKAKAHIKKLE [C17L]
3. STHNELEKNRRAHLRLCLERLKVLIPYGPDCTRHTTLGLLNKAKAHIKKLE [L27Y]
4. STHNELEKNRRAHLRLCLEMLKVLIPLGPDCTRHTTLGLLNKAKAHIKKLE [R20M]

result:
[-0.547, 0.101, -0.39, -1]

Hi! Can you tell me abundance fitness for each of these variants?
1. STHNELEKNRRAHLRLCLERLKVPIPLGPDCTRHTTLGLLNKAKAHIKKLE [L24P]
2. STHNTLEKNRRAHLRLCLERLKVLIPLGPDCTRHTTLGLLNKAKAHIKKLE [E5T]
3. STHNELEKNRRAHLRLCLERLKVLIPLGPDCTRHTTPGLLNKAKAHIKKLE [L37P]
4. STSNELEKNRRAHLRLCLERLKVLIPLGPDCTRHTTLGLLNKAKAHIKKLE [H3S]

result:
1. -0.938
2. -0.006
3. -0.624
4. 0.065

Hi! Can you tell me abundance fitness for each of these variants?
1. STHNELEKNRRAHLRLCLERLKVLIPLGPDCTRHTTLGSLNKAKAHIKKLE [L39S]
2. STHNELEKNRRAHLRLCLERSKVLIPLGPDCTRHTTLGLLNKAKAHIKKLE [L21S]
3. STHNELEKNRRAHLRLCLERLKVLIPLGPDCTRHTTLGLLNKEKAHIKKLE [A43E]
4. STHNEWEKNRRAHLRLCLERLKVLIPLGPDCTRHTTLGLLNKAKAHIKKLE [L6W]

result:
1: -0.707; 2: -0.915; 3: -0.58; 4: -0.566

Hi! Can you tell me abundance fitness for each of these variants?
1. SVHNELEKNRRAHLRLCLERLKVLIPLGPDCTRHTTLGLLNKAKAHIKKLE [T2V]
2. STHNELEANRRAHLRLCLERLKVLIPLGPDCTRHTTLGLLNKAKAHIKKLE [K8A]
3. STHNELEKNRRAHLRLCLERLKVLIPLGFDCTRHTTLGLLNKAKAHIKKLE [P29F]

result:
1. -0.663
2. -0.386
3. 0.413

Hi! Can you tell me abundance fitness for each of these variants?
1. STHNELEKNRRAHLRLCLERLKVLIPLGPHCTRHTTLGLLNKAKAHIKKLE [D30H]
2. STHNELEKNRRAHLRLCLERLKVLIPLGPDCTRHTTLGLRNKAKAHIKKLE [L40R]
3. STHNELEKNRRAHLRLCLERLKDLIPLGPDCTRHTTLGLLNKAKAHIKKLE [V23D]
4. STHNELEKNRRAHLRLCLERIKVLIPLGPDCTRHTTLGLLNKAKAHIKKLE [L21I]
5. STHNELEKNRRAHLRLCLERLKVLIPLGPDCTRHTRLGLLNKAKAHIKKLE [T36R]
6. STHNELEKNRRAHLRLCLERLKRLIPLGPDCTRHTTLGLLNKAKAHIKKLE [V23R]
7. STHNELEKNRRAHLRLCLERLKVLIPLGPDCTRHTTLGLLNKAKAHIKQLE [K49Q]

result:
0.031
-0.698
-0.127
-0.144
-0.19
0.316
-0.679
